# Measured on: endothelial nitric oxide synthase (eNOS) (Homo sapiens)
# Sequence (P29474 2-1203): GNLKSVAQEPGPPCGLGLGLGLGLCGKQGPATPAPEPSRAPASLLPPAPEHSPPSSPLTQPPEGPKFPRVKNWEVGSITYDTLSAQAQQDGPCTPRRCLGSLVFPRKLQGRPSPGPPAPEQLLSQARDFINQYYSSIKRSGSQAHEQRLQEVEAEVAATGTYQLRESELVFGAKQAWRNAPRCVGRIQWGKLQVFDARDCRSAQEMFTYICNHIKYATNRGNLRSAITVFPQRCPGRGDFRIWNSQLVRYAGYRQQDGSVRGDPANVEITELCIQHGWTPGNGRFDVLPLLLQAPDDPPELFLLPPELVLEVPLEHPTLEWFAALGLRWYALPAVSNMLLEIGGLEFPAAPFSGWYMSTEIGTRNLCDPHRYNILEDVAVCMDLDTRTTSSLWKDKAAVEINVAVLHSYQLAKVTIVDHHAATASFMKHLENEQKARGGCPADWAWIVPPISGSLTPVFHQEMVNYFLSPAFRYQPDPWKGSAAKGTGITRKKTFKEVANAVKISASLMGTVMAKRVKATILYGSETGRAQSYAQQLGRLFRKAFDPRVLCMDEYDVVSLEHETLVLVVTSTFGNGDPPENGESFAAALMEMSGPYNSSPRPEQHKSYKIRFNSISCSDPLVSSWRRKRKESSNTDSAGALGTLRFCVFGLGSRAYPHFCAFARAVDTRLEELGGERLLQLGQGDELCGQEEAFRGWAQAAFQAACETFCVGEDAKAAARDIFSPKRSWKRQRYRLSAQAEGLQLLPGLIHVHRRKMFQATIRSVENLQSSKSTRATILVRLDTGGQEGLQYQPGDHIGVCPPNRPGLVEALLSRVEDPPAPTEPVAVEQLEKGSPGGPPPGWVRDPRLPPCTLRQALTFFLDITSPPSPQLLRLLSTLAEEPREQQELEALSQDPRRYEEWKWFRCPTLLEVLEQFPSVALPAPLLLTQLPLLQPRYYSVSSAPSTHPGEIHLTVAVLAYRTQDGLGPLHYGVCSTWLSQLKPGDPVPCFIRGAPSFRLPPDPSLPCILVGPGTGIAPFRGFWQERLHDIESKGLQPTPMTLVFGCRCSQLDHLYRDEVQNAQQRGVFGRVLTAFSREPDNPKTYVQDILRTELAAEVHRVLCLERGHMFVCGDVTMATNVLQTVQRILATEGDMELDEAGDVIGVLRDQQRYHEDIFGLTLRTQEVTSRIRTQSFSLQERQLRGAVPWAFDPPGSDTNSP
# Experimental details: NO production (DAF-FM) in HUVECs with L-arginine competition; deuterated L-arginine to L-citrulline conversion by MS
Value type: pEC50
Notebook: values listed as pEC50 are -log10 of the concentration (mol/L).

Record summary for C[N+](C)(C)[O-] [Trimethylamine N-oxide] : reported pEC50 = 5.60
